Quick reference for % inhibition @36 µg/ml, SKBR3 cell proliferation among some binders
target: human ErbB2, full length, on cells (human, UniProt P04626 23-1255); test: cell-based or functional assay
Note: unit % is implicit; provide only the numeric part.

BINDER	RESULT UNIT	MEAS VALUE
monoclonal antibody 1.18.1 (antibody, V domains shown, Fully human IgG (gamma/kappa) from a XenoMouse XM3B-3 hybridoma; constant regions not tied to it) VH: EVQLVESGGGLVKPGGSLRLSCAASGFTFSSYSMNWVRQAPGKGLEWVSSISSSSSYIYYADSVKGRFTISRDNAKNSLYLQMNSLSAEDTAVYSCARGGDGYNYYYFDYWGQGTLVTVSS VL: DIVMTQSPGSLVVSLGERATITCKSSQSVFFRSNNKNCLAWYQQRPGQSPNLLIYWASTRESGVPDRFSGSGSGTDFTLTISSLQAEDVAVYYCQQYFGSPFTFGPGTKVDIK	%	46
monoclonal antibody 1.14.1 (antibody, V domains shown, Fully human IgG (gamma/kappa) from a XenoMouse XM3B-3 hybridoma; constant regions not tied to it) VH: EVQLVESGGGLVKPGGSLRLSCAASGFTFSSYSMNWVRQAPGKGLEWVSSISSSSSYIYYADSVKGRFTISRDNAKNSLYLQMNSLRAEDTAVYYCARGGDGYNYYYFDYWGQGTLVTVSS VL: DIVMTQSPDSLAVSLGERATITCKSSQSVFFRSNNKNCLTWYQQRPGQPPNLLIYWASTRESGVPDRFSGSGSGTDFTLTINNLQAEDVAVYYCQQYFGSPFTFGPGTKVDIK	%	52

From here, focus on the item given below.
Name the reported % inhibition @36 µg/ml, SKBR3 cell proliferation value associated with the binder monoclonal antibody 1.39 (antibody, V domains shown, Fully human IgG (gamma/kappa) from a XenoMouse XM3B-3 hybridoma; constant regions not tied to it; also called 1.39.1; 1.39.2) VH: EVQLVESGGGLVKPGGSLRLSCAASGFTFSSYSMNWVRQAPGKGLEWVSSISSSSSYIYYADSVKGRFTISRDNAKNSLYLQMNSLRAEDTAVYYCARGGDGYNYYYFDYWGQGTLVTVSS VL: DIVMTQSPDSLAVSLGERATITCKSSQSVFFRSNNKNCLAWYQQRPGQPPNLLIYWASSRESGVPDRFSGSGSGTDFALTISSLQTEDVAVYYCQQYFGSPFTFGPGTKVDIK
41

Hey, just so you know, these numbers are from patent US20130089544A1.
